TEST SUMMARY: PK study in CD-1 male mice with IV and PO dosing (Example 3)
Type: in vivo
CONDITION PARAMETERS: male, CD-1, mouse, in vivo, po, 10 mg/kg
PARAMETER MEASURED: Tmax (min)
Numeric answer only, unit min assumed.

Task: Fill in the blank: the reported Tmax of `Cc1cc(Nc2cc(N)ncn2)c(=O)n2c1C(=O)NC21CCC2(CC2)CC1` is ____.
Result: 30

====

TEST SUMMARY: PK study in male Sprague-Dawley rats dosed once per day for five days, PO 1 mg/kg, 0.5% HPMC (Example 6)
Assay type: in vivo
CONDITION PARAMETERS: male, Sprague-Dawley, rat, in vivo, po, 1 mg/kg, Sprague-Dawley rats, day 5 of daily PO 1 mg/kg, 0.5% HPMC suspension; individual animals
PARAMETER MEASURED: MRT inf (h)
Numeric answer only, unit h assumed.

Task: Fill in the blank: the reported MRT inf of `Cc1cc(Nc2cc(N)ncn2)c(=O)n2c1C(=O)NC21CCC2(CC2)CC1` is ____.
Result: 7.89

====

TEST SUMMARY: PK study in male Sprague Dawley rats, IV 1 mg/kg and PO 10 mg/kg (Example 4)
Assay type: in vivo
CONDITION PARAMETERS: male, Sprague-Dawley, rat, in vivo, iv, 1 mg/kg, CLp
PARAMETER MEASURED: clearance (mL/min/kg)
Numeric answer only, unit mL/min/kg assumed.

Task: Fill in the blank: the reported clearance of `Cc1cc(Nc2cc(N)ncn2)c(=O)n2c1C(=O)NC21CCC2(CC2)CC1` is ____.
Result: 0.314

====

TEST SUMMARY: PK study in male Sprague-Dawley rats dosed once per day for five days, PO 25 mg/kg, 0.5% HPMC (Example 8)
Type: in vivo
CONDITION PARAMETERS: male, Sprague-Dawley, rat, in vivo, po, 25 mg/kg, single PO 25 mg/kg dose, 0.5% HPMC suspension, individual animals
PARAMETER MEASURED: Tmax (h)
Numeric answer only, unit h assumed.

Task: Fill in the blank: the reported Tmax of Cc1cc(Nc2cc(N)ncn2)c(=O)n2c1C(=O)NC21CCC2(CC2)CC1 [4ET-03-053] is ____.
Result: 1

====

TEST SUMMARY: Plasma and brain concentrations, brain to plasma ratio 24 hr after last of five 25 mg/kg PO doses (Example 8)
Type: in vivo
CONDITION PARAMETERS: male, Sprague-Dawley, rat, plasma, oral, 25 mg/kg, rats, plasma, 24 hr after the last of five 25 mg/kg PO doses; mean; read-out: Plasma Conc., Mean
PARAMETER MEASURED: concentration at 24 h (ng/mL)
Numeric answer only, unit ng/mL assumed.

Task: Fill in the blank: the reported concentration at 24 h of Cc1cc(Nc2cc(N)ncn2)c(=O)n2c1C(=O)NC21CCC2(CC2)CC1 [4ET-03-053] is ____.
Result: 5890

====

TEST SUMMARY: PK study in male Sprague-Dawley rats dosed once per day for five days, PO 25 mg/kg, 0.5% HPMC (Example 8)
Format: in vivo
CONDITION PARAMETERS: male, Sprague-Dawley, rat, in vivo, po, 25 mg/kg, single PO 25 mg/kg dose, 0.5% HPMC suspension, individual animals
PARAMETER MEASURED: half-life (h)
Numeric answer only, unit h assumed.

Task: Fill in the blank: the reported half-life of `Cc1cc(Nc2cc(N)ncn2)c(=O)n2c1C(=O)NC21CCC2(CC2)CC1` is ____.
Result: 7.03

====

TEST SUMMARY: PK study in male Sprague-Dawley rats dosed once per day for five days, PO 10 mg/kg, 0.5% HPMC (Example 7)
Type: in vivo
CONDITION PARAMETERS: male, Sprague-Dawley, rat, in vivo, po, 10 mg/kg, male Sprague-Dawley rats, single PO 10 mg/kg, 0.5% HPMC suspension; read-out: terminal half-life (t1/2) (converted)
PARAMETER MEASURED: half-life (h)
Numeric answer only, unit h assumed.

Task: Fill in the blank: the reported half-life of `Cc1cc(Nc2cc(N)ncn2)c(=O)n2c1C(=O)NC21CCC2(CC2)CC1` is ____.
Result: 5.11

====

TEST SUMMARY: PK study in male Sprague-Dawley rats dosed once per day for five days, PO 10 mg/kg, 0.5% HPMC (Example 7)
Type: in vivo
CONDITION PARAMETERS: male, Sprague-Dawley, rat, in vivo, po, 10 mg/kg, single PO 10 mg/kg dose, 0.5% HPMC suspension, mean (n = 3)
PARAMETER MEASURED: MRT inf (h)
Numeric answer only, unit h assumed.

Task: Fill in the blank: the reported MRT inf of `Cc1cc(Nc2cc(N)ncn2)c(=O)n2c1C(=O)NC21CCC2(CC2)CC1` is ____.
Result: 7.43

====

TEST SUMMARY: PK study in male Sprague Dawley rats, IV 1 mg/kg and PO 10 mg/kg (Example 4)
Assay type: in vivo
CONDITION PARAMETERS: male, Sprague-Dawley, rat, in vivo, po, 10 mg/kg, Cmax
PARAMETER MEASURED: Cmax (ng/mL)
Numeric answer only, unit ng/mL assumed.

Task: Fill in the blank: the reported Cmax of `Cc1cc(Nc2cc(N)ncn2)c(=O)n2c1C(=O)NC21CCC2(CC2)CC1` is ____.
Result: 14400

====

TEST SUMMARY: PK study in male Sprague Dawley rats, IV 1 mg/kg and PO 10 mg/kg (Example 4)
Assay type: in vivo
CONDITION PARAMETERS: male, Sprague Dawley, rat, in vivo, iv, 1 mg/kg, CLp
PARAMETER MEASURED: clearance (mL/min/kg)
Numeric answer only, unit mL/min/kg assumed.

Task: Fill in the blank: the reported clearance of Cc1cc(Nc2cc(N)ncn2)c(=O)n2c1C(=O)NC21CCC2(CC2)CC1 [4ET-03-053] is ____.
Result: 0.33

====

TEST SUMMARY: PK study in male Sprague Dawley rats, IV 1 mg/kg and PO 10 mg/kg (Example 4)
Assay type: in vivo
CONDITION PARAMETERS: male, Sprague-Dawley, rat, in vivo, po, 10 mg/kg, t1/2
PARAMETER MEASURED: half-life (h)
Numeric answer only, unit h assumed.

Task: Fill in the blank: the reported half-life of Cc1cc(Nc2cc(N)ncn2)c(=O)n2c1C(=O)NC21CCC2(CC2)CC1 [4ET-03-053] is ____.
Result: 9.07

====

TEST SUMMARY: Plasma and brain concentrations, brain to plasma ratio in SD rats 2 hr after single 10 mg/kg PO (Example 4)
Type: in vivo
CONDITION PARAMETERS: Sprague-Dawley, rat, brain tissue homogenate, po, 10 mg/kg, 2 hr post single PO dose 10 mg/kg, mean, read-out: Brain Tissue Homogenate Conc., Mean
PARAMETER MEASURED: concentration at 2 hr
Entry format: amount then unit.

Task: Fill in the blank: the reported concentration at 2 hr of Cc1cc(Nc2cc(N)ncn2)c(=O)n2c1C(=O)NC21CCC2(CC2)CC1 [4ET-03-053] is ____.
Result: 349 ng/mL

====

TEST SUMMARY: PK study in male Sprague-Dawley rats, IV 0.5 mg/kg and PO 1 mg/kg in 10% DMA/PG (Example 5)
Assay type: in vivo
CONDITION PARAMETERS: male, Sprague-Dawley, rat, in vivo, po, 1 mg/kg, Clast
PARAMETER MEASURED: concentration at 24 hr (ng/mL)
Numeric answer only, unit ng/mL assumed.

Task: Fill in the blank: the reported concentration at 24 hr of `Cc1cc(Nc2cc(N)ncn2)c(=O)n2c1C(=O)NC21CCC2(CC2)CC1` is ____.
Result: 74.6

====

TEST SUMMARY: PK study in male Sprague-Dawley rats dosed once per day for five days, PO 1 mg/kg, 0.5% HPMC (Example 6)
Type: in vivo
CONDITION PARAMETERS: male, Sprague-Dawley, rat, in vivo, po, 1 mg/kg, male Sprague-Dawley rats, single (first) PO 1 mg/kg dose, 0.5% HPMC suspension; mean (n = 3); read-out: t1/2 (converted)
PARAMETER MEASURED: half-life (min)
Numeric answer only, unit min assumed.

Task: Fill in the blank: the reported half-life of `Cc1cc(Nc2cc(N)ncn2)c(=O)n2c1C(=O)NC21CCC2(CC2)CC1` is ____.
Result: 344

====

TEST SUMMARY: PK study in male Sprague-Dawley rats dosed once per day for five days, PO 10 mg/kg, 0.5% HPMC (Example 7)
Type: in vivo
CONDITION PARAMETERS: male, Sprague-Dawley, rat, in vivo, po, 10 mg/kg, male Sprague-Dawley rats, single PO 10 mg/kg dose, 0.5% HPMC suspension; individual animals; read-out: Cmax
PARAMETER MEASURED: Cmax (ng/mL)
Numeric answer only, unit ng/mL assumed.

Task: Fill in the blank: the reported Cmax of `Cc1cc(Nc2cc(N)ncn2)c(=O)n2c1C(=O)NC21CCC2(CC2)CC1` is ____.
Result: 25100

Values were extracted from patent US20250186436A1.
